Cited source: patent US4656166A

- Test system: Serrtia liquefaciens SL 1326 S
- Measurement notes: MIC on strain not producing beta-lactamase, Serratia liquefaciens SL 1326 S (Table IV)
- Format: cell-based
- Settings: SL1326S, not producing beta-lactamases
// MIC lookup, one value per entry

Query: Requested field: MIC. Item: NCC(=O)Nc1ccc(C(=O)OCC2=C(C(=O)O)N3C(=O)C(NC(=O)C(=NOC4(C(=O)O)CCC4)c4csc(N)n4)C3[S+]([O-])C2)cc1 (stereo not drawn)
Response: ≤ 0.0312 µg/mL

Query: Requested field: MIC. Item: CC(C)(O/N=C(\C(=O)NC1C(=O)N2C(C(=O)O)=C(COC(=O)CC3CCNCC3)C[S+]([O-])C12)c1csc(N)n1)C(=O)O (stereo not drawn)
Response: ≤ 0.0312 µg/mL

Query: Requested field: MIC. Item: CC(C)(ON=C(C(=O)NC1C(=O)N2C(C(=O)O)=C(COC(=O)C3CCN(C(=O)CN)CC3)C[S+]([O-])C12)c1csc(N)n1)C(=O)O (stereo not drawn)
Response: ≤ 0.0312 µg/mL
